Value source: patent US20250270315A1

Target: T1, human SIRPβL ECD recombinant protein (6×His tagged) (human, UniProt Q5TFQ8 30-371)
T1 construct: given variously as SIRPBL, SIRPBI and SIRPβI; Bought from Biointron; also called human SIRPBL ECD; human SIRPBI ECD
T1 sequence (Q5TFQ8 30-371 limits assumed): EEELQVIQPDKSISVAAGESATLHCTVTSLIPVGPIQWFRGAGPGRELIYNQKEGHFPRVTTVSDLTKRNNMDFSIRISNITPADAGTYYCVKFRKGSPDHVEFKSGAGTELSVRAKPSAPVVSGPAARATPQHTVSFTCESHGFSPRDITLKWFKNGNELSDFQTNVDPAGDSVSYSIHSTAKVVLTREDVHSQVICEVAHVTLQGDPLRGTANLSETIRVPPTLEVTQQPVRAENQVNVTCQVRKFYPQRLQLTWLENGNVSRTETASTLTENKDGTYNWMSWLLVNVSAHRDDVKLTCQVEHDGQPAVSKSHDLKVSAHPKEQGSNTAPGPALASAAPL
Assay: ELISA, hSIRPβI ECD
pEC50: −log10 of the molar value.
Parameter pEC50: see the listing below.
OBSERVATION TYPE: pEC50

• 015c (antibody, V domains shown, also called chimeric antibody 015c) VH: EVQLQQSGVEVVQPGASVKLSCTASGFNIEAYYMHWVKQRTEQGLEWIGRIDPEDGESKYAPKFQGKATMTADTSSSTAYLQLSSLTSDDTAVYYCVRGSYEYWGQGTTLTVSS VL: QIVLTQSPAIMSASPGEKVTLTCSASSSVSSSYLYWYQQKPGSSPKLWIYSTSNLASGVPPRFSGSGSGTSYSLTISSMQAEDAASYFCYQWSSYPYTFGGGTKLEIK = 9.40
• 073c (antibody, V domains shown, also called chimeric antibody 073c) VH: QIQLVQSGPELKKPGETVKISCKASGYTFTTYGMSWVKQAPGKGLKWMVWINTYSGVPTYADDFKGRFAFSLETSASTSYLQINNLKNEDTATYFCARDPHYYGSSPAWFVYWGQGTLVTVSA VL: DIVMTQSQKFMSTTIGDRVSITCEASQIVGIAVAWYQQKPGQSPKLLIYSASNRYTGVPDRFTGSGSGTDFTLTISNMQSEDLANYFCQQYSAYPFTFGSGTKLEVK = 9.57
• 025c (antibody, V domains shown, also called chimeric antibody 025c; parental antibody of 025c) VH: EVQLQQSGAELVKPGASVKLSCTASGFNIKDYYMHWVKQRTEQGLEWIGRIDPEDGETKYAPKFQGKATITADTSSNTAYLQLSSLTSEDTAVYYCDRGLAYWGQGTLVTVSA VL: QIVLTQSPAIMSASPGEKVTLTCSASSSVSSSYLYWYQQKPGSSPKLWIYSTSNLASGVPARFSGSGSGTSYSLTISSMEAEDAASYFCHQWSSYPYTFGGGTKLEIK = 9.48
• hu1H9G4 (antibody, V domains shown) VH: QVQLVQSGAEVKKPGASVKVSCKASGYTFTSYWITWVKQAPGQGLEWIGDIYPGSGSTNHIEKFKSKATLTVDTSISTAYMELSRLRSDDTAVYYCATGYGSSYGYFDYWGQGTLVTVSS VL: DIQMTQSPSSLSASVGDRVTITCRASENIYSYLAWYQQKPGKAPKLLIYTAKTLAEGVPSRFSGSGSGTDFTLTISSLQPEDFATYYCQHQYGPPFTFGQGTKLELK = 9.62
